# Test system: fluoroquinolone-resistant S. aureus ATCC 700699
# ASSAY PROCEDURE: Minimum inhibitory concentration (MIC) assay, broth microdilution, MRSA
# Type: cell-based
# MEASUREMENT CONTEXT: Staphylococcus aureus; fluoroquinolone-resistant S. aureus ATCC 700699; Table I; read-out: MRSA MIC
MEASUREMENT NAME: MIC (µg/mL)

The cases that follow already have their MIC on record.
[
  {
    "COMPOUND": "COc1c(N2C[C@@H]3CCCN[C@@H]3C2)ccc2c(=O)c3c(O)c(C#N)sc3n(C3CC3)c12 [Cmp 27]",
    "MEASURED NUMBER": 8
  },
  {
    "COMPOUND": "COc1c(N2CCNCC2)c(F)cc2c(=O)c3c(O)c(C#N)sc3n(C3CC3)c12 [Cmp 9]",
    "MEASURED NUMBER": 0.75
  },
  {
    "COMPOUND": "COc1c(N2CC[C@@H]([C@H](C)N)C2)c(F)cc2c(=O)c3c(O)c(C#N)sc3n(C3CC3)c12 [Cmp 11]",
    "MEASURED NUMBER": 0.094
  },
  {
    "COMPOUND": "COc1c(N2CC[C@@H](CN)C2)c(F)cc2c(=O)c3c(O)c(C(C)=O)sc3n(C3CC3)c12 [Cmp 60]",
    "MEASURED NUMBER": 0.06
  },
  {
    "COMPOUND": "N#CCN1CCN(c2c(F)cc3c(=O)c4c(O)c(C#N)sc4n(C4CC4)c3c2OC(F)F)CC1 [Cmp 18]",
    "MEASURED NUMBER": 4
  }
]

A. COc1c(N2CCCC(C(N)=O)C2)c(F)cc2c(=O)c3c(O)c(C#N)sc3n(C3CC3)c12 (stereo not shown) [Cmp 37]
B. COc1c(N2CC(O)C2)c(F)cc2c(=O)c3c(O)c(C#N)sc3n(C3CC3)c12 [Cmp 24]
C. N#Cc1sc2c(c1O)c(=O)c1cc(F)c(N3CCNCC3)c(OC(F)F)c1n2C1CC1 [Cmp 3]
D. COc1c(N2CCNC(C(N)=O)C2)c(F)cc2c(=O)c3c(n(C4CC4)c12)SC(C#N)C3=O (stereo not shown) [Cmp 52]
E. COc1c(N2CC[C@@H](C(C)(C)N)C2)c(F)cc2c(=O)c3c(O)c([N+](=O)[O-])sc3n(C3CC3)c12 [Cmp 13]
Request: Provide the items ranked by increasing MIC. # the answer lists labels in the order requested
Response: A, B, D, C, E
(A: 0.25 µg/mL, B: 1 µg/mL, D: 2 µg/mL, C: 4 µg/mL, E: 32 µg/mL)

I. COc1c(N2CCNCC2)c(F)cc2c(=O)c3c(O)c(C(C)=O)sc3n(C3CC3)c12 [Cmp 57]
II. COc1c(N2CC[C@H](N)C2)c(F)cc2c(=O)c3c(O)c(C#N)sc3n(C3CC3)c12 [Cmp 22]
III. COc1c(-c2cn[nH]c2)c(F)cc2c(=O)c3c(n(C4CC4)c12)SC(C#N)C3=O (stereo not shown) [Cmp 51]
Request: Rank entries according to their MIC, from the largest number down. Please respond by ranking the labels in the order requested.
Response: I, III, II
(I: 1 µg/mL, III: 0.5 µg/mL, II: 0.25 µg/mL)

a. COc1c(N2CC3CC2CN3)c(F)cc2c(=O)c3c(O)c(C#N)sc3n(C3CC3)c12 (stereo not shown) [Cmp 41]
b. COc1c(N2CCCC(CN)C2)c(F)cc2c(=O)c3c(O)c(C(C)=O)sc3n(C3CC3)c12 (stereo not shown) [Cmp 64]
Request: Param metric = MIC; output whichever of a , b has the minimum value. Answer with the label corresponding to your selection.
Response: b
(b: 0.25 µg/mL, a: 1 µg/mL)

----------
The entries below are paired with their reported Cytoxicity.
# System: Hep2
# ASSAY PROCEDURE: Cell viability staining with Alamar Blue (compound cytotoxicity)
# Type: cell-based, human
# MEASUREMENT CONTEXT: Table II, comparison of R2 acetyl vs cyano
Give the value in µM but do not write µM after it.

Worked cases, answers included:
[
  {
    "COMPOUND": "COc1c(N2CC[C@@H](C(C)(C)N)C2)c(F)cc2c(=O)c3c(O)c(C(C)=O)sc3n(C3CC3)c12",
    "Cytoxicity, µM": 20
  },
  {
    "COMPOUND": "COc1c(N2CCCC(CN)C2)c(F)cc2c(=O)c3c(O)c(C(C)=O)sc3n(C3CC3)c12 (centres unmarked)",
    "Cytoxicity, µM": 19
  },
  {
    "COMPOUND": "COc1c(N2CC[C@@H](CN)C2)c(F)cc2c(=O)c3c(O)c(C(C)=O)sc3n(C3CC3)c12",
    "Cytoxicity, µM": 11
  },
  {
    "COMPOUND": "COc1c(N2CCCC(CN)C2)c(F)cc2c(=O)c3c(O)c(C#N)sc3n(C3CC3)c12 (centres unmarked)",
    "Cytoxicity, µM": 0.4
  },
  {
    "COMPOUND": "COc1c(N2CC[C@@H](C(C)(C)N)C2)c(F)cc2c(=O)c3c(n(C4CC4)c12)SC(C#N)C3=O (some centres unmarked)",
    "Cytoxicity, µM": 2
  },
  {
    "COMPOUND": "COc1c(N2CCNCC2)c(F)cc2c(=O)c3c(O)c(C(C)=O)sc3n(C3CC3)c12",
    "Cytoxicity, µM": 57
  },
  {
    "COMPOUND": "COc1c(N2CC[C@@H](CN)C2)c(F)cc2c(=O)c3c(O)c(C#N)sc3n(C3CC3)c12",
    "Cytoxicity, µM": 0.06
  }
]

Okay, now this compound:
Request: Fill in the blank: the reported Cytoxicity of COc1c(N2CCNCC2)c(F)cc2c(=O)c3c(n(C4CC4)c12)SC(C#N)C3=O (centres unmarked) is ____.
Response: 9

----------
# System: fluoroquinolone-resistant S. aureus ATCC 700699
# ASSAY PROCEDURE: Minimum inhibitory concentration (MIC) assay, broth microdilution, MRSA
# Type: cell-based
# MEASUREMENT CONTEXT: Staphylococcus aureus; fluoroquinolone-resistant S. aureus ATCC 700699; Table I; read-out: MRSA MIC
MEASUREMENT NAME: MIC (µg/mL)

Worked examples follow.
[
  {
    "MOLECULE": "N#Cc1sc2c(c1O)c(=O)c1ccc(N3CCNCC3)c(OC(F)F)c1n2C1CC1",
    "MEASUREMENT NAME": "MIC",
    "MEASURED NUMBER": 64
  },
  {
    "MOLECULE": "COc1c(N2CCCC(CN)C2)c(F)cc2c(=O)c3c(O)c(C(N)=O)sc3n(C3CC3)c12 (centres unmarked)",
    "MEASUREMENT NAME": "MIC",
    "MEASURED NUMBER": 2
  }
]

a. CN(C)c1ccc2c(=O)c3c(O)c(C#N)sc3n(C3CC3)c2c1OC(F)F
b. COc1c(N2CCN(C)CC2)c(F)cc2c(=O)c3c(O)c(C#N)sc3n(C3CC3)c12
c. COc1c(N2CC[C@H](O)C2)c(F)cc2c(=O)c3c(O)c(C#N)sc3n(C3CC3)c12
Request: Sort by MIC, descending. In your reply, arrange the labels in the requested order.
Response: a, b, c

I. COc1c(N2CC[C@@H](C(C)(C)N)C2)ccc2c(=O)c3c(O)c(C#N)sc3n(C3CC3)c12
II. CCN[C@@H](C)[C@@H]1CCN(c2c(F)cc3c(=O)c4c(O)c(C#N)sc4n(C4CC4)c3c2OC)C1
Request: Determine, for I and II , which has the greater value of MIC. Return value: the label identifying the chosen record.
Response: I
(I: 0.42 µg/mL, II: 0.13 µg/mL)

----------
S. aureus ATCC 29213 data, read-out MIC
MEASUREMENT NAME: MIC (µg/mL)

[
  {
    "MOLECULE": "CN(C)c1ccc2c(=O)c3c(O)c(C#N)sc3n(C3CC3)c2c1OC(F)F",
    "MIC [µg/mL]": 4
  },
  {
    "MOLECULE": "COc1c(N2CC[C@H](O)C2)c(F)cc2c(=O)c3c(O)c(C#N)sc3n(C3CC3)c12",
    "MIC [µg/mL]": 0.03
  },
  {
    "MOLECULE": "COc1c(N2CC[C@@H](C(C)(C)N)C2)c(F)cc2c(=O)c3c(O)csc3n(C3CC3)c12",
    "MIC [µg/mL]": 2
  },
  {
    "MOLECULE": "COc1c(N2C[C@@H]3CCCN[C@@H]3C2)c(F)cc2c(=O)c3c(O)c(C#N)sc3n(C3CC3)c12",
    "MIC [µg/mL]": 0.5
  },
  {
    "MOLECULE": "CNC(C)(C)[C@@H]1CCN(c2c(F)cc3c(=O)c4c(O)c(C#N)sc4n(C4CC4)c3c2OC)C1",
    "MIC [µg/mL]": 0.06
  }
]

I. COc1c(N2CCC(N)CC2)c(F)cc2c(=O)c3c(O)c(C#N)sc3n(C3CC3)c12
II. COc1c(N2CC[C@@H](C(C)(C)N)C2)c(F)cc2c(=O)c3c(O)c([N+](=O)[O-])sc3n(C3CC3)c12
III. COc1c(-c2ccnc(N3CCNCC3)c2)c(F)cc2c(=O)c3c(n(C4CC4)c12)SC(C#N)C3=O (stereo not shown)
Request: Rank entries according to their MIC, from the largest number down. Sort and list the labels as requested.
Response: II, III, I
